Tested on: PPARg homodimer (NR concentration 180 nM)
Experiment: PBM binding z-score (relative to random genomic background probes); higher = stronger binding; sequences stand for … in GC…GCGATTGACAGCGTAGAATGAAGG
Would you mind labelling by PBM binding z-score? At or over 1 is Satisfied, under is Not satisfied.

{"columns": ["residue-codes", "answer-label"],
 "data": [
  ["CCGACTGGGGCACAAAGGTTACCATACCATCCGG", "Not satisfied"],
  ["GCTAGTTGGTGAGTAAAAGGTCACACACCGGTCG", "Satisfied"],
  ["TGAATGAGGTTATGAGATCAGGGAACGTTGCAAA", "Not satisfied"],
  ["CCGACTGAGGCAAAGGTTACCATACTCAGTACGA", "Satisfied"],
  ["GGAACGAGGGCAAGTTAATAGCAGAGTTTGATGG", "Not satisfied"],
  ["ACTATTAGTCGACTTAGGGCAACCGATACGACGC", "Not satisfied"],
  ["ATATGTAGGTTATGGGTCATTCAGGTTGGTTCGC", "Satisfied"],
  ["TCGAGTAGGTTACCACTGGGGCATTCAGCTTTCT", "Not satisfied"],
  ["CCTACTGAGCCAAAAAGGTCATTGATGCCGATAA", "Satisfied"],
  ["CCTTACCGGTCACTGACAGGTTATAGCATTTGGA", "Satisfied"],
  ["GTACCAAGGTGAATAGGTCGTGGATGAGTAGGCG", "Satisfied"],
  ["CGTCCAAGATCAATGCTAGGTCAGTGAAAGCATT", "Not satisfied"],
  ["TCGAGTAGATTACCAATGGGGCATTCAGCTTTCT", "Not satisfied"],
  ["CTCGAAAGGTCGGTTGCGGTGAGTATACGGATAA", "Not satisfied"],
  ["TCAATGAGGTTAAAGATCAGGGAACGTGGCGTCG", "Not satisfied"],
  ["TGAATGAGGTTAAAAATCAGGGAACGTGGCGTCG", "Not satisfied"],
  ["TCTTGTAGATCAACAGGAGGTAAAGAAAGATCGA", "Not satisfied"],
  ["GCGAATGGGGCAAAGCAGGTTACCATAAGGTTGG", "Not satisfied"],
  ["CCTACTGGGCCAAGGTTATTGATCAGTCAAAGCA", "Not satisfied"],
  ["GCTATTAGTTGACAGGGCAACCGAATGATTCTCG", "Not satisfied"],
  ["CGTCCCAGGTCATAGGAGGTCAGTGAAGACAGAT", "Satisfied"],
  ["TCTTGTAGATCAGCAGGTAAAGAAAGCTGGCCAA", "Not satisfied"],
  ["CCTAGCAGGCCCGGGTCACTCAAGCATTTCGCTT", "Not satisfied"],
  ["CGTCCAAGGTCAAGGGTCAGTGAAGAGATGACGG", "Satisfied"],
  ["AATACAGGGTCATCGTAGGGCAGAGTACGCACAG", "Satisfied"],
  ["TCATATAGGTAAACAGGTTAAAGTCCGTAAGTTA", "Satisfied"],
  ["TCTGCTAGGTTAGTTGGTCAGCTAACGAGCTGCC", "Not satisfied"],
  ["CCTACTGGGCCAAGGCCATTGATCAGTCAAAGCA", "Not satisfied"],
  ["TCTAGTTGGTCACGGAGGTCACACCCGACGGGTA", "Satisfied"],
  ["CTCGAGAGGTCGTGCTCAGGTGAGTATACCAAAC", "Not satisfied"],
  ["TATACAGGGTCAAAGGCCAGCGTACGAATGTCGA", "Satisfied"],
  ["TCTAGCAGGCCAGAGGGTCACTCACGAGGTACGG", "Satisfied"],
  ["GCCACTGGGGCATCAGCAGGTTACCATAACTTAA", "Not satisfied"],
  ["CGAACTAGGTCAGAACATGACAGTGAAGGATGAT", "Satisfied"],
  ["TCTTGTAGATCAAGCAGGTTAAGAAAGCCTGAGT", "Not satisfied"],
  ["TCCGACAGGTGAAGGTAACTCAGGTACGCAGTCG", "Not satisfied"],
  ["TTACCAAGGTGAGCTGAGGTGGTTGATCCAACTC", "Not satisfied"],
  ["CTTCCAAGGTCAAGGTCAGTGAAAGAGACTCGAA", "Satisfied"],
  ["TGAATGAGGTTATAAGATCAGGGAACGTTGCAAA", "Not satisfied"],
  ["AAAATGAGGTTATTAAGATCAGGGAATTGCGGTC", "Not satisfied"],
  ["TGACCAAGGTGAGCTGAGGTCGTTGATCCAACTC", "Not satisfied"],
  ["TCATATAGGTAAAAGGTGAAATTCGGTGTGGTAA", "Satisfied"],
  ["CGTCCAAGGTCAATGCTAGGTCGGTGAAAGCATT", "Satisfied"],
  ["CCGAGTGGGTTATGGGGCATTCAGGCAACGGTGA", "Not satisfied"],
  ["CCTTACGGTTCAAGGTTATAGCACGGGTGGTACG", "Satisfied"],
  ["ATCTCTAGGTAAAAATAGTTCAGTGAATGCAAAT", "Not satisfied"],
  ["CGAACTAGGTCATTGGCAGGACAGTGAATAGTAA", "Satisfied"],
  ["CAAACTAGGTCAGAACAGGACAGTGAAGGATGAT", "Satisfied"],
  ["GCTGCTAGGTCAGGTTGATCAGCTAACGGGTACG", "Not satisfied"]
]}
